Recorded values, source patent US20210130436A1.

# subject of test: T1, human PD-L1 (full-length, expressed on CHO cells) (human, UniProt Q9NZQ7 19-290)
# T1 construct: also called huPD-L1; CD274
# test name: flow cytometry, MFI on CHO/huPD-L1 cells over MFI on Jurkat (CD28) cells, 33.3 nM
Record 1 whenever Ratio of PDL1:CD28 is at 200 ratio or higher; record 0 when lower.

Hi, just wondering whether variant CD80 IgV-Fc Q33L/E35D/M47I/T62N/L85Q (Fc fusion, not shown: a dimerising Fc or GST) VIHVTKEVKEVATLSCGHNVSVEELAQTRIYWLKDKKMVLTMMSGDINIWPEYKNRTIFDINNNLSIVILALRPSDEGTYECVVQKYEKDAFKREHLAEVTLSVKAD shows Ratio of PDL1:CD28 of 200 ratio or higher.
1

Could you verify whether the entry variant CD80 IgV-Fc Q33L/E35D/M47I/L85Q (Fc fusion, not shown: a dimerising Fc or GST) VIHVTKEVKEVATLSCGHNVSVEELAQTRIYWLKDKKMVLTMMSGDINIWPEYKNRTIFDITNNLSIVILALRPSDEGTYECVVQKYEKDAFKREHLAEVTLSVKAD shows Ratio of PDL1:CD28 of no less than 200 ratio?
1

Is the recorded value of Ratio of PDL1:CD28 equal to or greater than 200 ratio for this binder? variant CD80 IgV-Fc H18L/V22A/E35D/M47L/N48T/L85Q (Fc fusion, not shown: a dimerising Fc or GST) VIHVTKEVKEVATLSCGLNVSAEELAQTRIYWQKDKKMVLTMMSGDLTIWPEYKNRTIFDITNNLSIVILALRPSDEGTYECVVQKYEKDAFKREHLAEVTLSVKAD
1

Determine whether this binder has Ratio of PDL1:CD28 no lower than 200 ratio: variant CD80 IgV-Fc H18Y/V20A/Q33L/E35D/M47V/Y53F (Fc fusion, not shown: a dimerising Fc or GST) VIHVTKEVKEVATLSCGYNASVEELAQTRIYWLKDKKMVLTMMSGDVNIWPEFKNRTIFDITNNLSIVILALRPSDEGTYECVVLKYEKDAFKREHLAEVTLSVKAD
1

Does variant CD80 IgV-Fc A26E/Q33L/E35D/M47L (Fc fusion, not shown: a dimerising Fc or GST) VIHVTKEVKEVATLSCGHNVSVEELEQTRIYWLKDKKMVLTMMSGDLNIWPEYKNRTIFDITNNLSIVILALRPSDEGTYECVVLKYEKDAFKREHLAEVTLSVKAD have a reported Ratio of PDL1:CD28 of at least 200 ratio?
1

Say whether variant CD80 IgV-Fc A26E/Q33L/E35D/M47L/L85Q (Fc fusion, not shown: a dimerising Fc or GST) VIHVTKEVKEVATLSCGHNVSVEELEQTRIYWLKDKKMVLTMMSGDLNIWPEYKNRTIFDITNNLSIVILALRPSDEGTYECVVQKYEKDAFKREHLAEVTLSVKAD shows Ratio of PDL1:CD28 of 200 ratio or more.
1

Answer whether Ratio of PDL1:CD28 of variant CD80 IgV-Fc H18Y/Q33L/E35D/M47I (Fc fusion, not shown: a dimerising Fc or GST) VIHVTKEVKEVATLSCGYNVSVEELAQTRIYWLKDKKMVLTMMSGDINIWPEYKNRTIFDITNNLSIVILALRPSDEGTYECVVLKYEKDAFKREHLAEVTLSVKAD is greater than or equal to 200 ratio.
0

Entry variant CD80 IgV-Fc V22A/E23D/Q33L/E35D/M47V (Fc fusion, not shown: a dimerising Fc or GST) VIHVTKEVKEVATLSCGHNVSADELAQTRIYWLKDKKMVLTMMSGDVNIWPEYKNRTIFDITNNLSIVILALRPSDEGTYECVVLKYEKDAFKREHLAEVTLSVKAD : is its Ratio of PDL1:CD28 no less than 200 ratio?
1

Is Ratio of PDL1:CD28 for variant CD80 IgV-Fc Q33K/E35D/D46V/L85Q (Fc fusion, not shown: a dimerising Fc or GST) VIHVTKEVKEVATLSCGHNVSVEELAQTRIYWKKDKKMVLTMMSGVMNIWPEYKNRTIFDITNNLSIVILALRPSDEGTYECVVQKYEKDAFKREHLAEVTLSVKAD at or above 200 ratio?
0

Form field: Ratio of PDL1:CD28 at least 200 ratio? Entry: variant CD80 IgV-Fc E35D/M47I/E77A/L85Q/R94W (Fc fusion, not shown: a dimerising Fc or GST) VIHVTKEVKEVATLSCGHNVSVEELAQTRIYWQKDKKMVLTMMSGDINIWPEYKNRTIFDITNNLSIVILALRPSDAGTYECVVQKYEKDAFKWEHLAEVTLSVKAD
1

hey, is Ratio of PDL1:CD28 for this one >= 200 ratio? variant CD80 IgV-Fc H18Y/E35D/M47L (Fc fusion, not shown: a dimerising Fc or GST) VIHVTKEVKEVATLSCGYNVSVEELAQTRIYWQKDKKMVLTMMSGDLNIWPEYKNRTIFDITNNLSIVILALRPSDEGTYECVVLKYEKDAFKREHLAEVTLSVKAD
0

Hi team, for variant CD80 IgV-Fc Y31S/E35D/M47L/T79L/E88G (Fc fusion, not shown: a dimerising Fc or GST) VIHVTKEVKEVATLSCGHNVSVEELAQTRISWQKDKKMVLTMMSGDLNIWPEYKNRTIFDITNNLSIVILALRPSDEGLYECVVLKYGKDAFKREHLAEVTLSVKAD , is the recorded Ratio of PDL1:CD28 at or above 200 ratio?
0

Evaluate variant CD80 IgV-Fc Q33L/E35D/T41S/M43I (Fc fusion, not shown: a dimerising Fc or GST) VIHVTKEVKEVATLSCGHNVSVEELAQTRIYWLKDKKMVLSMISGDMNIWPEYKNRTIFDITNNLSIVILALRPSDEGTYECVVLKYEKDAFKREHLAEVTLSVKAD : Ratio of PDL1:CD28 at minimum 200 ratio?
0

Ratio of PDL1:CD28 >= 200 ratio for variant CD80 IgV-Fc E7D/E35D/M47I/L97Q (Fc fusion, not shown: a dimerising Fc or GST) VIHVTKDVKEVATLSCGHNVSVEELAQTRIYWQKDKKMVLTMMSGDINIWPEYKNRTIFDITNNLSIVILALRPSDEGTYECVVLKYEKDAFKREHQAEVTLSVKAD ?
0

hey, is Ratio of PDL1:CD28 for this one >= 200 ratio? variant CD80 IgV-Fc Q33L/E35D/M47V/L85Q (Fc fusion, not shown: a dimerising Fc or GST) VIHVTKEVKEVATLSCGHNVSVEELAQTRIYWLKDKKMVLTMMSGDVNIWPEYKNRTIFDITNNLSIVILALRPSDEGTYECVVQKYEKDAFKREHLAEVTLSVKAD
0

Entry variant CD80 IgV-Fc Q33L/E35D/M47I (Fc fusion, not shown: a dimerising Fc or GST) VIHVTKEVKEVATLSCGHNVSVEELAQTRIYWLKDKKMVLTMMSGDINIWPEYKNRTIFDITNNLSIVILALRPSDEGTYECVVLKYEKDAFKREHLAEVTLSVKAD : is its Ratio of PDL1:CD28 no less than 200 ratio?
0
